B1: HEEH_KT_rd6_0790 (parent)
chain: SEEEEEEWRRAKERGEEIIILGILWKPNDEEAERRIKEALRRV

- Variants of: B1
- protocol-details: folding stability dG (cDNA display proteolysis); higher = more stable
- run-conditions: PBS, room temperature
Please map values of folding stability dG to classes as shown: class 1 (below 1 kcal/mol), class 2 (1 kcal/mol to below 2 kcal/mol), class 3 (2 kcal/mol or more)

Worked set:
- mutant-designation: "N28P"
  category-label: "class 2"
- mutant-designation: "G22S"
  category-label: "class 2"
- mutant-designation: "R35K"
  category-label: "class 3"
- mutant-designation: "R10V"
  category-label: "class 2"
- mutant-designation: "I18G"
  category-label: "class 1"

## Task Looking at R42P , which class would you pick?
## Result class 2

## Task The entry to classify is E17D ; which class holds it?
## Result class 2
